Every entry's value here was drawn from the supplement of paper PMC6555819.

Test system: RARg homodimer (NR concentration 270 nM)
test_details: PBM binding z-score (relative to random genomic background probes); higher = stronger binding; sequences stand for … in GC…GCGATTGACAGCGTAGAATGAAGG
reported_property: PBM binding z-score
// return a plain number; no unit text

- chain: "AGAATGAGGTTAAGATGAGGGAAACAGAATACAT"
  tested_on: "RARg homodimer (NR concentration 270 nM)"
  test_value: 1.62
- chain: "CCTTACGGGTCACGAGGTTATAGCCCGACGAGCG"
  tested_on: "RARg homodimer (NR concentration 270 nM)"
  test_value: 5.36
- chain: "GGAACGAGGGCAAGTTGATCGCAGAGTTTGATGG"
  tested_on: "RARg homodimer (NR concentration 270 nM)"
  test_value: 1.89
- chain: "CCTATTAGTTGACCATAAGGGCAACCGCAGCTCG"
  tested_on: "RARg homodimer (NR concentration 270 nM)"
  test_value: 1.07
- chain: "CCTCGCAGGACAGAAGGTCAGAGCTGTCCGCTTT"
  tested_on: "RARg homodimer (NR concentration 270 nM)"
  test_value: 2.61
- chain: "CCTCGGAGGACCACAGGAGGTCAGAGCTGCCAGA"
  tested_on: "RARg homodimer (NR concentration 270 nM)"
  test_value: 2.01
- chain: "CCTACTGGGCCACGAAAGGTCATAGATTCAGTGA"
  tested_on: "RARg homodimer (NR concentration 270 nM)"
  test_value: 4.53
- chain: "ATATGTAGGATACATCCGGGTCATTCAGGCTATG"
  tested_on: "RARg homodimer (NR concentration 270 nM)"
  test_value: 1.43
- chain: "ATATGTAGGTTAGCTGTGGTCATTCAGACTAGGC"
  tested_on: "RARg homodimer (NR concentration 270 nM)"
  test_value: 0.985
- chain: "CAAACTAGGTCAAGAGGTAAAAGTCCGCTTCCCG"
  tested_on: "RARg homodimer (NR concentration 270 nM)"
  test_value: 4.74

Sample `CAAACTAGGTCACCGGAAGGTCAAATTCCGCATG` — what was its PBM binding z-score? 7.31

Query `AGCCAAAGTTCAGGACGAGGTAACGTAAAGCACG` next 4.18

* * *

Test system: VDR homodimer (NR concentration 270 nM)
test_details: PBM binding z-score (relative to random genomic background probes); higher = stronger binding; sequences stand for … in GC…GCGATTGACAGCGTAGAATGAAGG
Label 1 when PBM binding z-score >= 1; otherwise -1.

- chain: "GCTTACGGGTCAAAGGTAATAGCATGAATAGAAT"
  tested_on: "VDR homodimer (NR concentration 270 nM)"
  assigned_label: 1
- chain: "GCATATAGGTAATACAAGGTAAAAGTCCGATTGT"
  tested_on: "VDR homodimer (NR concentration 270 nM)"
  assigned_label: -1
- chain: "ATCTCTAGGTAAAATTTCAGTGAATCCCGAGGAT"
  tested_on: "VDR homodimer (NR concentration 270 nM)"
  assigned_label: -1
- chain: "AGAATGAGGTTATTAAGATCAGGTAATTGCGGTC"
  tested_on: "VDR homodimer (NR concentration 270 nM)"
  assigned_label: 1
- chain: "GCGACTGGGGCAAAGTAGGTTACCATAAGGTTGG"
  tested_on: "VDR homodimer (NR concentration 270 nM)"
  assigned_label: -1

Exam item: decide whether the reported PBM binding z-score for `CCTCGGAGGACAAAAGGAGGTCAGAGCTGCCAGA` is at least 1. 1

Query `TCTTGTAGATCAACAGGAAGTTAAGAAAGATCGA` next -1

Query `TTACCTAGGTGAAGGTCGTTGATCCCTCTGTAGA` next -1

Query `CCCACTGGGCCACGAAAGGTCATTGATTCAGTGA` next 1

Query `ACAAGCAGGCCAAGGGTCACTCAAGATTAGTCCG` next -1

* * *

Tested on: PPARg:RXRa DBDmut IVT, anti-RXR (DBD mutation: RXRa K156A/R161A, NR concentration 270 nM, RXRa partner concentration 90 nM)
test_details: PBM binding z-score (relative to random genomic background probes); higher = stronger binding; sequences stand for … in GC…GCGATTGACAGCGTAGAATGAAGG
Label yes when PBM binding z-score >= 3; otherwise no.

// known answers, use as guide
- chain: "AGAACGAGGGCAATGAGTTGAGAGCACGGGTGGC"
  assigned_label: "no"
- chain: "CGTCAAAGTTCAAGGTAACGTTACAGAAAGCAGC"
  assigned_label: "no"

Moving on to another sequence below.
Exam item: decide whether the reported PBM binding z-score for `CTACCAAGGTGAACAAGGTCGCTGATTACTATTC` is at least 3. no

* * *

Tested on: RXRa DBDmut IVT, anti-RXR (DBD mutation: RXRa K156A/R161A, NR concentration 90 nM)
test_details: PBM binding z-score (relative to random genomic background probes); higher = stronger binding; sequences stand for … in GC…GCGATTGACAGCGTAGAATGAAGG
Entries and their measured PBM binding z-score follow.

// below: answered sequences
- chain: "CCGAGTAGGTTATGGCGCATTCAGGCAACGGTGA"
  test_value: -0.0161
- chain: "CCTTACGGGTCACGAGTTTATAGCACGACGAGCG"
  test_value: 2.39

Sample `CCTGGCAGGCCAATCTGGGTCACTCAAGGCTTGA` — what was its PBM binding z-score? -0.376

Query `ATATGTAGGTTAAGGGTCATTCAGGTTGGTTCGC` next 2.37

Query `TCTCGGAGGACACGAAGCTCAGAGCTTTCCAGAG` next 0.583

Query `TCATATGGGTAAAAGGTGAAAGTCGGTGTGGTAA` next 1.05

Query `TAGCCTAGGTCATTCAGGGGCCAGGATAGAAAGC` next 1.8

Query `CCTGCTAGGTCAATGGTCAGCGAAAGCAGCTCGC` next 1.73

* * *

Tested on: RARg homodimer (NR concentration 270 nM)
test_details: PBM binding z-score (relative to random genomic background probes); higher = stronger binding; sequences stand for … in GC…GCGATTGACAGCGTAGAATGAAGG
Label Criterion met when PBM binding z-score >= 2; otherwise Criterion not met.

Exam item: decide whether the reported PBM binding z-score for `GTACCAAGGTGACTAGGTCGTTGATGAGTAGGCG` is at least 2. Criterion not met

Query `ATCTCTGGGTAAGACTCAGTTCAGTGAAGAACGC` next Criterion not met

Query `CCTACTGGGCCATTCAGAGGTAATTGATCATATG` next Criterion not met

Query `GCTTACGGGTCAAAGTTTATAGCATGAATAGAAT` next Criterion met

Query `GCAGACAGGTGAAACACAGGTAACTCAGGGTGGC` next Criterion not met

Query `AACTCTAGGTAAAAGTTCAGTGAATCCCGAGGAT` next Criterion not met

* * *

Entries and their measured PBM binding z-score follow.
Test system: THRa:RXRa (NR concentration 90 nM, RXRa partner concentration 90 nM)
test_details: PBM binding z-score (relative to random genomic background probes); higher = stronger binding; sequences stand for … in GC…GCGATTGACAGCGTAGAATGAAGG

// below: answered sequences
- chain: "CCGAGTAGGTTATGGGGCATACAGGCAACGGTGA"
  PBM binding z-score: 0.28
- chain: "AGAATGAAGTTATTAAGATCAGGGAATTGCGGTC"
  PBM binding z-score: -0.108

Sample `AGAAGGAGGTTATACGTAGATCAGGGAAGAAAGT` — what was its PBM binding z-score? 1.28

Query `CGAACTAGGTCAGAACAGGAGAGTGAAGGATGAT` next 1.72

Query `CACGAAAGGTCGTGCTCAGGTGAGTATACCAAAC` next 3.96

Query `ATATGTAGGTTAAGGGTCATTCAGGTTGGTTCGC` next 3.68

Query `CAAACTAGTTCAAGGTCAAAGTCGGTTTGTGCCA` next 4.05

Query `CTACTAAGGTGAACAAGGTCGTTGATTACTATTC` next 3.61

* * *

System: RARg homodimer (NR concentration 270 nM)
test_details: PBM binding z-score (relative to random genomic background probes); higher = stronger binding; sequences stand for … in GC…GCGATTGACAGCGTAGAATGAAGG
Labels assigned by PBM binding z-score range: L = under 0.7, M = from 0.7 up to 2, H = 2 and over

// known answers, use as guide
- chain: "AGAATGAGGTTCTTAAGATCAGGGAATTGCGGTC"
  assigned_label: "L"
- chain: "ACAGACAGGTGATGAAGCTAACTCAGGCTATCAT"
  assigned_label: "L"
- chain: "ATCGAAAGTTCGAAGGTGAGTATACCCACCCGAA"
  assigned_label: "M"
- chain: "TCGAGTAGGTTACCAATGGGGCATTCACCTTTCT"
  assigned_label: "L"
- chain: "ACAGACGGGTGATGAAGGTAACTCAGGCTATCAT"
  assigned_label: "L"
- chain: "ATCGAAAGGTCGACGAGGTGCGTATACACCGTTT"
  assigned_label: "H"
- chain: "ATCTCTAGGTAAAGTTCAGTGTAAGATCGATAGA"
  assigned_label: "H"
- chain: "TCTTGTAGAGCAAAGGTTAAGAAAGCCGAAGCCT"
  assigned_label: "L"

Exercise: read the entry `CCTCGGAGGACAGACGGTCAGAGCTGTCCGCTTT` and state which class it falls under. M

Query `CCAGTCAGGTGAAAGGTAACTCAGTCTGGTACGC` next M

Query `CAAACTAGGTCAAAGGTCAAAGTCGAGCCAACCA` next H
